biological target: T1, Cynomolgus monkey LRP-8 expressed on HEK293 cells (cynomolgus monkey); experiment: cell-based binding assay, cynoLRP8
T1 construct: whole, on cells; also called cyno LRP-8; cLRP-8
pEC50: −log10 of the molar value.
// pEC50 lookup, one value per entry

Binder	pEC50
anti-LRP-8 BGK-2C8.8C antibody (antibody, V domains shown) VH: EVQLVESGGGLVQPGRSLKLSCAASGFTVSDYYMAWVRQAPKKGLEWVASISYEGSSTYYGDSVKGRFTISRDNAKSILYLQMNSLRSEDTATYYCARPLRYYGYNYRFAYWGQGTLVTVSS VL: DIQMSQSPPVLSASVGDRVTLSCKASQNIHKNLDWYQQKHGEAPKLLIYYTDNLQTGIPSRFSGSGSGTDYTLTISSLQPEDVATYYCYQYNSGPTFGAGTKLELQ	9.09
anti-LRP-8 BGK.2C8.E6.D3 [r/m IgG2a/K] (antibody, V domains shown) VH: QVTLKESGPGILQPSQTLSLTCTFSGFSLNTYGMGVGWVRQPSGKGLEWLANIWWDDDKFYNPSLKNRLTVSKDTSNNQAFLRITNGDTADTATYFCARILGEDIGGALDAWGQGTSVTVSS VL: DTVLTQSPALAVSPGERVSISCRASEGVNSYMHWYQQNPGQQSKLLIYRTSNLASGVPARFGGSGSGTDFTLTIDPVEADDTATYFCQQSWNDPPTFGGGTKLELK	9.51
anti-LRP-8 BGK-7F7 chimeric antibody (CL-105960) (antibody, V domains shown) VH: QVTLKESGPGILQPSQTLSLTCTFSGFSLSTYGLGVGWIRQPSGKGLEWLANIWWDDAKYYNPSLKNRLTISKDTSNNQAFLKIPNVDTADTARYYCARTTKPYYFDYWGQGVMVTVSS VL: HFVLAQPNSVSTNLGSTVKLSCKRSTANIGSNYVNWYQQHEGRSPTTLIYRDDRRPDGVPDRFSGSIDRSSNSALLTINNVQTEDEADYFCQSYSSGINIFGGGTKLTVL	9.46
anti-LRP-8 BGK.5D10.E4 [r/m IgG2a/K] (antibody, V domains shown, Rat variable domains on mouse IgG2a/kappa) VH: QVQLRETGPDLVQPTQTLSLTCTVSGFSLTNYPVQWVRQPPGSGLEWLGIMWPSGAADFNPALKSRLSISRDTSKSQFFLRMDNLQTDDTAIYFCARGRGYSSPYAMDAWGQGTSVTVSS VL: DIQMTQSPASLSASLGETVSIECLASEDIYNNLAWYQQKPGKSPHLLIHFTSNLQDGVPSRFSGSGSGTQYSLKINSLESEDGATYFCLQDSEYPLTFGSGTKLEIK	9.11
anti-LRP-8 BGK-7A11 chimeric antibody (CL-105959) (antibody, V domains shown) VH: QVTLKESGPGILQPSQTLSLTCTFSGFSLSTYGMGVGWIRQPAGTGLEWLANIWWDDDKYYNPSLKNRLTISKDTSNNQVFLKITNVDTADTATYYCARTTKPYYFDYWGQGVMVTVSS VL: HFVLAQPNSVSTNLGSTVKLSCKRSTGNSGSNYVNWYQQYEGRSPTTMIYRDDKRPDGVPDRFSGSIDRSSNSALLTINNVQTEDEADYFCQSYSSGINIFGGGTKLTVL	9.28
anti-LRP-8 BGK-2H4 chimeric antibody (CL-105945) (antibody, V domains shown) VH: EVQLVESGGGLVQPGRSMKLSCAASGFTFSSFPMAWVRQAPTKGLEWVATVSTRGGHTYYRDSVKGRFTISRDNAKNTLYLQMNSLRSEDTATYYCIREGTSLFAYWGQGTLVTVSS VL: DIQMTQSPPSLSASLGETVSIECLASEDISNYLAWYQQKPGKSPQLLIYYANSLEDGVPSRFSGSGSGTQYSLKISNMQPEDEGVYHCQQGYNYPYTFGAGTKLELK	8.97
anti-LRP-8 BGK.6E3.F4 [r/m IgG2a/K] (antibody, V domains shown, Rat variable domains on mouse IgG2a/kappa) VH: EVQLVESGGGLVQPGKSLKLSCAASGFTFSDYNMAWVRQAPKKGLEWVATIMYDGSRTFYRDSVKGRYTFSRDNAKSTLYLQMDSLRSEDTATYYCATGRNWFAYWGQGTLVTVSS VL: DIIMTQSPSSLAVSAGETVTINCKSSQSLLSSGKQKNYLAWYQQKPGQSPKLLIYLASTRESGVPDRFIGSGSGTDFTLTISSMQAEDLAIYYCQQHYDTPLTFGSGTKLEIK	9.60
